Recorded values, source patent US6162417A.

Assay: Tissue distribution of radioactivity after intravenous administration (Table 6)
Format: in vivo, Sprague Dawley rats
Details: heart, rat, i.v., 120 min, mean (range) of 4 rats, read-out: Heart, mean % injected dose/gram
Text: Distribution of Radioactivity in Tissues of Unfasted Male Sprague Dawley Rats Following Intravenous Administration of (+)-Trans-1,2,3,5,6,10b-hexahydro-6- [4-iodophenyl]-pyrrolo[2,1-a]isoquinoline Mean % Injected Dose/Gram (Range of 4 rats +/SD)
Endpoint: tissue uptake at 2 h (%ID/g)
# unit: %ID/g | format: bare number

Noted for `Ic1ccc([C@@H]2CN3CCC[C@@H]3c3ccccc32)cc1` : its tissue uptake at 2 h reads 0.47
